// provenance: patent US20230303667A1

The binders listed here are annotated with their PRNT50 (ug/ml) for Ebola Zaire (Kikwit strain).
target: Ebola Zaire (Kikwit strain) glycoprotein (Ebola Zaire (Kikwit strain)) (UniProt P87666); test: cell-based or functional assay
Sequence (P87666 33-676 limits assumed): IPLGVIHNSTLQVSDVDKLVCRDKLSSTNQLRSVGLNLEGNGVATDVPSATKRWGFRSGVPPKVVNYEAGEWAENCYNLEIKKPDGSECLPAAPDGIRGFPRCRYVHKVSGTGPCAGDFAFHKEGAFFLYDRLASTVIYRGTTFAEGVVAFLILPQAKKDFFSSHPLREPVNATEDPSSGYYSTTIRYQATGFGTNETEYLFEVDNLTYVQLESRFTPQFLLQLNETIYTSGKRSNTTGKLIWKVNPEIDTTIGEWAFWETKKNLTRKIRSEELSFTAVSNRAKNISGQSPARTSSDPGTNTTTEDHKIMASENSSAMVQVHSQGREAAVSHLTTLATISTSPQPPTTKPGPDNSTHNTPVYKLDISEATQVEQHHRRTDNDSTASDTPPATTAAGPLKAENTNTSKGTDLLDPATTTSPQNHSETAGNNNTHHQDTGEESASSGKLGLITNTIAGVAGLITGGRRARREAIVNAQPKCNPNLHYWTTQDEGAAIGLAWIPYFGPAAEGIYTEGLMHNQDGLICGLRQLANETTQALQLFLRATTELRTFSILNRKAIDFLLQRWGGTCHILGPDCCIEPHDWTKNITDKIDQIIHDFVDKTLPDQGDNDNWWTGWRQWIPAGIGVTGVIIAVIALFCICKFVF
PROPERTY: PRNT50 (ug/ml) for Ebola Zaire (Kikwit strain) (µg/mL)

# BINDER, DATA VALUE
rows = [
    ("5.1.7D03 (antibody, V domains shown) VH: EVQLVQSGGGLAQPGGSLRLSCAASGFTFRSYDMHWVRQVTGKGLEWVSAIGTAGDTYYTGSVKGRFTISRENDKSSLYLQMSSLRGEDTAVYYCARAAFGSHYFDYWGQGTLVTVSS VL: EIVLTQSPGTLSLSPGERAALSCRASQSVSGNYFAWYQQKSGQAPRLLISAASSRATGVPDRFSASGSGTDFTLTISRLEPEDSAVYYCQQYGSSPLTFGQGTKVEIK", 1.57),
    ("9.6.3A06 (antibody, V domains shown) VH: EVQLLESGGGLVKPGGSLRLSCAASGFTFNEYMMNWVRQPPGKGLEWVSSISGTSTYINYADSVKGRFTISRDNAKNSLYLQMNSLRSDDTAMYYCARGSTGGYWGQGTLITVSS VL: DIVMTQTPLSSAVTLGQPASISCRSSQRLVHSDGNTYLSWLHQRPGQPPRLLIYKVSLRFSGVPDRFSGSGAGTDFTLKISRVEAEDVGIYYCMQATQFPLTFGGGTKVEIK", 0.0488),
    ("9.6.1A09 (antibody, V domains shown) VH: EVQLVESGGGLVQPGGSLRLSCAASGFTFRSYDMDWFRQSTGKGLEWVSAIGSAGDTYYTDSVKGRFTISRENGKNSLYLQMNSLRAGDTAVYYCARARFGDNVFDLWGRGTLVTVSS VL: DIVMTQSPDSLAVSLGERASINCKSSQSVLSSSNTKNYLAWYQHKPGQPPKLLIYWASTRESGVPDRFSGSGSGTDFTLTISSLQPEDVAVYYCQQYYGAPYTFGQGTKVEIK", 0.781),
    ("5.6.c2618 (antibody, V domains shown) VH: QVQLVQSGAEVKKPGASVNLSCKGSGYSFRTYYIHWVRQAPGQGLEWMGIINSSGGGTTYAQKFQGRVTMTRDTSTSTVYMELRSLKYEDTAMYYCARDRFPTVSGEPFAMDVWGQGTTVTVSS VL: EVVLTQSPVTLSLSPGERATLSCRASQSVSGYLAWYQQKPGQVPRLLIYDTSNRATGIPARFSGSGSGTDFTLTISTIEPEDFAVYYCQQRSKWGVTFGGGTKVDIK", 0.0061),
]
